Reference source: ChEMBL document CHEMBL4819038

target: Toll-like receptor 2 (Homo sapiens, UniProt O60603); test: Antagonist activity at human TLR2 expressed in HEK-Blue cells assessed as inhibition of Pam2CSK4-induced TLR2/TLR6 activation by measuring decrease in NFkappaB activation pretreated for 2 hrs followed by incubation with agonist for 18 hrs by SEAP assay; format: cell-based, HEK-Blue hTLR2
Sequence (O60603 whole entry): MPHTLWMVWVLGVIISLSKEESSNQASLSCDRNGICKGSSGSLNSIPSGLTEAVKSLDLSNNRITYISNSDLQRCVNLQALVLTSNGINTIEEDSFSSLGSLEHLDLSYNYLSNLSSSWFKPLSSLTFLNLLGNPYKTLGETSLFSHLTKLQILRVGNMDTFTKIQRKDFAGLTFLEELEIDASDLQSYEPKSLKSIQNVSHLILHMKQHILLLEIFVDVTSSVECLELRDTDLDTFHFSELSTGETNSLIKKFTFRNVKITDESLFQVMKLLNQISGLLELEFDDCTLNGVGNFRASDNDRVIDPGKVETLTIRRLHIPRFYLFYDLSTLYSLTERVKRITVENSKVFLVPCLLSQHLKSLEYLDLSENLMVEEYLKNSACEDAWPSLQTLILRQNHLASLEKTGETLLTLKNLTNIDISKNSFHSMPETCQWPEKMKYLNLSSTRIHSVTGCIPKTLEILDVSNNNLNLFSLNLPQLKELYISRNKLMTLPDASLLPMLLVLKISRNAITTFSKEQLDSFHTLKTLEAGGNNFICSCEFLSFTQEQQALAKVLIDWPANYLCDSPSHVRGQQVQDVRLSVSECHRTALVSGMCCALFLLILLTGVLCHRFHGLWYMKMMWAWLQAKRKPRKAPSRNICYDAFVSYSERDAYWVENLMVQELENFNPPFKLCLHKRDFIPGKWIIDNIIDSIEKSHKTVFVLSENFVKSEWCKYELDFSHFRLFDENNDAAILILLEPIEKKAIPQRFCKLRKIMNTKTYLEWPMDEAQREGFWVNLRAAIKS
pIC50: −log10 of the molar value.
Readout: pIC50

Known pIC50 results, listed for orientation:
{"Molecule": "CCCCC/C=C\\C/C=C\\CCCCCCCCOCC(CNC(=O)c1cccc(C2CCNCC2)c1)OCCCCCCCC/C=C\\C/C=C\\CCCCC (centres undefined)", "pIC50": 4.79}
{"Molecule": "CCCCC/C=C\\CCCCCCCOCC(CNC(=O)c1cccc(C2CCNCC2)c1)OCCCCCCC/C=C\\CCCCC (centres undefined)", "pIC50": 4.77}
{"Molecule": "CCCCCCCCCCCCCCNC(=O)[C@H](CCCCN)NCc1ccccc1", "pIC50": 4.95}
{"Molecule": "CCCCCCCCCCCCCCOCC(CNC(=O)CC[C@H](NC(=O)OCC1c2ccccc2-c2ccccc21)C(=O)O)OCCCCCCCCCCCCCC (some centres undefined)", "pIC50": 4.88}

I. CCCCCCCCCCCCCCOCC(CNC(=O)C(CC1CCNCC1)NC(=O)OCC1c2ccccc2-c2ccccc21)OCCCCCCCCCCCCCC (centres undefined)
II. CCCCCCCCCCCCCCOCC(CNC(=O)[C@H](CCCCN)NCc1ccc(-c2ccccc2)cc1)OCCCCCCCCCCCCCC (some centres undefined)
*Q* Which value of pIC50 is greater, the one for I or the one for II ? Write the label of whichever entry you select.
*A* I
(I: 4.78, II: 4.55)
